- test.summary: Plasma pharmacokinetics and bioavailability after intravenous and oral administration
- Assay type: in vivo, cynomolgus monkeys
- measurement.context: both sexes, cynomolgus, cynomolgus monkey, plasma; Monkey, 3 mg/kg po
endpoint: MRT (h)
One number for each entry, in h.

q: Name the recorded MRT for "COC(=O)NCCCn1nc([C@@H](C)N(C(=O)[C@H]2CNCCO2)C2CC2)c2ccc(C)nc21" .
a: 3.46
